- Tested on: HIV-1 Tat-derived peptide RKKRRQRRRPPQGS (Human immunodeficiency virus 1)
- test: EMSA
- condition.set: linker D (hexaethylene glycol) replaces 6-nt loop between the two strands; 56.0% active RNA
pKd: −log10 of the molar value.

seq.text: GGAGAUCUGAGCGCUCUCUCC [TAR conjugate 5D]
pKd: 9.18

Each recorded value in this set is attributed to patent US5495006A.
